- assay-protocol: NCI Yeast Anticancer Drug Screen. Data for the mec2-1 strain (AID 157)
- test-settings: S. cerevisiae mec2-1 strain, at 50.0 µM, active compounds read high
- Protocol: Growth inhibition of yeast strains with defined genetic alterations is measured as a screen for potential anti-cancer activity. Selected strains with alterations in DNA damage repair or cell cycle control were exposed to compounds and growth inhibition was measured relative to vehicle treated controls. The strain used in this assay is mec2-1
Compounds without any hit were thinned out: in the full panel of roughly 79,000, 15% have a hit.
Each entry below carries its recorded growth inhibition.
Expressed in %, but write only the number.

A selection of reference data follows.
Form field growth inhibition, entry COc1cc(NCCCCCNC(C)C)c2ncccc2c1 : 20.2

The recorded growth inhibition for entry CC(C)(C)NC(=O)c1cccc(C(N)=O)n1 equals -16.1

Continuing:
// O=C(Cl)CCc1ccnc2ccccc12 : growth inhibition value = 3.25

For this compound ( c1ccc(COC[C@H]2O[C@@H](c3ccccc3)C[C@@H](OCc3ccccc3)C2OCc2ccccc2)cc1 (some centres undefined) ), measured growth inhibition is -11.6

Entry Nc1c(Cl)cc2c(c1Br)C(=O)c1ccccc1C2=O , growth inhibition reported as -3.5

CCCCCC(C)(O)CCC (centres undefined) has a reported growth inhibition of -6.65

Record O=C(Nc1ccccc1F)OCCCl . Reported growth inhibition: -23.6

The recorded growth inhibition for Cc1cc2nc3c(=O)[nH]c(=O)nc-3n(CC(O)C(O)C(O)C(O)CO)c2cc1C (centres undefined) is 3.2

// sample Nc1nc(SCc2ccc(F)cc2)c2[nH]cnc2n1 , its growth inhibition was 9.35

The compound identified as Cc1cc(C)c(OCC(O)CO)c(C)c1 (centres undefined) registered its growth inhibition at -26.1

So, COC1(OC)C2(Cl)C(Cl)=C(Cl)C1(Cl)C1CCCCCC12 (centres undefined) ? Its growth inhibition was 2.8

// recorded growth inhibition for CCOC(=O)C(/C=N\c1[nH]ncc1C#N)=C(/C(=O)OCC)c1ccc(O)cc1 : 5.9

Recorded growth inhibition (compound CCCC(=O)Oc1ccc2ccccc2c1 ): 23.5

For record COc1ccc(Cl)cc1NC(=O)Oc1cc2ccccc2cc1C(=O)Nc1ccccc1 the listed growth inhibition is -8.05

growth inhibition for COC1=C(OC)C(=O)C(Sc2ccc3ccccc3c2)=C(Cl)C1=O is 94.2

// recorded growth inhibition for N#CCCNCCC[Si]12OCCN(CCO1)CCO2 : 1.35

Sure, the documented growth inhibition for COc1ccc(C2CC(=O)NC2=O)cc1OC (centres undefined) is 17.4

Kindly note the recorded growth inhibition for S=C(Nc1ccc(N=Nc2ccccc2)cc1)SCc1ccc(Cl)cc1 , which is 3.6

Entry CCC(CC)(C(=O)O)C(=O)O — recorded growth inhibition = 9.3

----------
- assay-protocol: NCI Yeast Anticancer Drug Screen. Data for the mlh1 rad18 strain (AID 175)
- test-settings: S. cerevisiae mlh1 rad18 strain growth inhibition; at 50.0 µM
Compounds without any hit were thinned out: in the full panel of roughly 79,000, 15% have a hit. Active and inactive are the calls of the source. Cut-off read from the data, not from the text of the source: active = growth inhibition above about 70%; inactive = the rest.
Reply using exactly one outcome from active, inactive

// below: answered molecules
Query: Field: outcome | Entry: CC(C)(C)C(C)(C)CC(N)=O
Result: inactive

Query: Dear all, I need the recorded test outcome for Cc1cccc(C[N+](C)(C)CCO)c1C , thank you.
Result: inactive

Query: Returns: the outcome recorded for Cc1ccc(C(=O)NCCN2CCCC2)c([N+](=O)[O-])c1OCc1ccccc1 in this assay.
Result: inactive

Query: Short answer needed: outcome of this test for CC=C1C(C(=O)O)C1C(=O)O (stereo not given) ?
Result: inactive

Query: Hello, I am checking results. What call was entered for Nc1c(Br)c(Br)cc2c1-c1ccc(Br)cc1C2 ?
Result: inactive

More entries:
Query: Hi, sorry to bother you, what did the test record for COC(=O)[C@]1(C)CCCn2c(=O)n(-c3ccccc3)c(=O)n21 ?
Result: inactive

Query: Please share the test call associated with Cc1cc(OC(=O)Nc2cccc(Cl)c2C)ccc1[N+](=O)[O-] .
Result: inactive

Query: Lab log entry: COC(=O)NC(c1ccccc1)C(C)I (stereo not given) — outcome as called in the assay?
Result: inactive

Query: For this molecule, state the assay outcome: Nc1nnc2nc(CC(=O)Cc3ccccc3)c(CC(=O)Cc3ccccc3)nn12
Result: inactive

Query: What is the recorded call for this molecule in the test? CC1C[C@]2(C)C(=NCCN)Nc3ccccc3[C@@H]2N(C)c2ccccc21 (stereo not given in full)
Result: inactive

Query: Dear colleague, could you share the recorded outcome for Nc1ncnc2nc(N3CCN(CCO)CC3)[nH]c12 when you have a moment?
Result: inactive

Query: What call does the record list for Cc1ccnc(N(C)CCN2CCCCC2)c1 ?
Result: inactive

Query: Hey, what did the test say about CCCCCCCCCCCC1=C(O)C(=O)C(I)=C(O)C1=O ?
Result: inactive

----------
- assay-protocol: NCI Yeast Anticancer Drug Screen. Data for the mlh1 rad18 strain (AID 175)
- test-settings: S. cerevisiae mlh1 rad18 strain growth inhibition; at 50.0 µM; active compounds read high
- Experimental: Growth inhibition of yeast strains with defined genetic alterations is measured as a screen for potential anti-cancer activity. Selected strains with alterations in DNA damage repair or cell cycle control were exposed to compounds and growth inhibition was measured relative to vehicle treated controls. The strain used in this assay is mlh1 rad18
This is part of a sample that, as a whole, favours compounds with a hit. Of some 79,000 tested, about 15% had one in any assay.
Below is a list of entries, each paired with its recorded growth inhibition value.
Respond with the bare value in %.

Known growth inhibition results, listed for orientation:
According to the records, this compound CC(=O)/C=c1\[nH]/c(=C\C=C\c2ccccc2)c(=O)n1/C=C1\C(=O)Oc2ccccc2C1=O displays growth inhibition of -46

response.value for N=c1ccccn1CC(O)COc1ccccc1 (stereo not given) (field: growth inhibition) = -5.8

get_value(item= C=CCNC(=S)NN(C)C , readout=growth inhibition) returns -16.4

According to the records, this compound Cc1ccc(C(O)(c2ccc(C)cc2)C2CCCCC2=C(c2ccccc2)c2ccccc2)cc1 (stereo not given) displays growth inhibition of 15.2

Lab book: growth inhibition of O=C(/C=C/c1ccccc1)NN1CCOCC1 noted as -2.95

Others:
Item: CCOC(=O)CNC(=O)CCC(=O)OC | growth inhibition: -9.1

# growth inhibition of CCc1ccccc1NC(=O)C(=O)C1C(=O)N(c2ccccc2)N=C1N (stereo not given) = -22

Just so you know, measured growth inhibition for CC1CNC(=S)O1 (stereo not given) came out at -16.7

// NCC(O)c1cc(I)c(Oc2ccc(O)cc2)c(I)c1 (stereo not given) : growth inhibition value = -11.5

Reported growth inhibition ( COC(=O)C(N)Cc1ccc(OCc2ccccc2)cc1 (stereo not given) ) = -5.35

Quick note, growth inhibition for Nc1nc2ncn(COC(CO)CO)c2c(=O)[nH]1 landed at 20.1

Lookup result for FC1(F)C(F)(F)C(F)(F)C2(F)C(F)(F)C(F)(F)C(F)(F)C(F)(F)C2(F)C1(F)F (stereo not given) ; measured growth inhibition: -8.5

COC(=O)CCOc1ccccc1 has a reported growth inhibition of -18.8

So, CC1=CC(NCCC(=O)O)NC(=O)N1 (stereo not given) ? Its growth inhibition was -1.85

Notebook: Brc1ccc(Nc2ccc(Br)cc2Br)c(Br)c1 , growth inhibition read as 10.2

----------
growth inhibition for assorted compounds
- assay-protocol: NCI Yeast Anticancer Drug Screen. Data for the mec2-1 strain (AID 157)
- test-settings: S. cerevisiae mec2-1 strain, at 50.0 µM, active compounds read high
About 79,000 compounds went through this panel and 15% of them were active in at least one assay; those are over-represented in the sample as a whole.
Supply the numeric figure in %, leaving out any unit text.

Looking up Cc1ccc(-c2nc(C)c(C(=O)Nc3ccc(Cl)cc3)s2)cc1 , I found its growth inhibition recorded as -25.4

Note to self: growth inhibition recorded for CC(=O)NC(c1ccccc1)(c1ccccc1)c1ccccc1 was 8.15

More entries:
Value of measured growth inhibition for the entry Cc1ccc(S(=O)(=O)Nn2c(-c3ccccc3)c(C#N)c(-c3ccc([N+](=O)[O-])cc3)c(C#N)c2=O)cc1 : 16.2

growth inhibition in this record for O=[N+]([O-])c1ccc(OP2(Oc3ccc([N+](=O)[O-])cc3)=NP(Oc3ccc([N+](=O)[O-])cc3)(Oc3ccc([N+](=O)[O-])cc3)=NP(Oc3ccc([N+](=O)[O-])cc3)(Oc3ccc([N+](=O)[O-])cc3)=NP(Oc3ccc([N+](=O)[O-])cc3)(Oc3ccc([N+](=O)[O-])cc3)=N2)cc1 : -7.9

The compound listed as CCOC(=O)Nc1nc2ccccc2n1CN1CCOCC1 shows growth inhibition equal to -11.9

For reference, reported growth inhibition for COC(=O)C(=O)C(C(=O)C(=O)Nc1cc(C)ccc1C)c1nc2ccccc2[nH]c1=O (stereo not drawn) stands at -11.9

Looking up O=[N+]([O-])c1ccc(N2CCN=N2)cc1 , I see its growth inhibition listed as -14.6

The compound listed as O=c1c2ncccc2cc2n1CCc1c-2[nH]c2ccccc12 has a reported growth inhibition of -15.9
